Value source: ChEMBL document CHEMBL3627637

Examples of compounds with documented inhibition follow.
Molecular target: Genome polyprotein (West Nile virus) (UniProt P06935)
Sequence (P06935 whole entry): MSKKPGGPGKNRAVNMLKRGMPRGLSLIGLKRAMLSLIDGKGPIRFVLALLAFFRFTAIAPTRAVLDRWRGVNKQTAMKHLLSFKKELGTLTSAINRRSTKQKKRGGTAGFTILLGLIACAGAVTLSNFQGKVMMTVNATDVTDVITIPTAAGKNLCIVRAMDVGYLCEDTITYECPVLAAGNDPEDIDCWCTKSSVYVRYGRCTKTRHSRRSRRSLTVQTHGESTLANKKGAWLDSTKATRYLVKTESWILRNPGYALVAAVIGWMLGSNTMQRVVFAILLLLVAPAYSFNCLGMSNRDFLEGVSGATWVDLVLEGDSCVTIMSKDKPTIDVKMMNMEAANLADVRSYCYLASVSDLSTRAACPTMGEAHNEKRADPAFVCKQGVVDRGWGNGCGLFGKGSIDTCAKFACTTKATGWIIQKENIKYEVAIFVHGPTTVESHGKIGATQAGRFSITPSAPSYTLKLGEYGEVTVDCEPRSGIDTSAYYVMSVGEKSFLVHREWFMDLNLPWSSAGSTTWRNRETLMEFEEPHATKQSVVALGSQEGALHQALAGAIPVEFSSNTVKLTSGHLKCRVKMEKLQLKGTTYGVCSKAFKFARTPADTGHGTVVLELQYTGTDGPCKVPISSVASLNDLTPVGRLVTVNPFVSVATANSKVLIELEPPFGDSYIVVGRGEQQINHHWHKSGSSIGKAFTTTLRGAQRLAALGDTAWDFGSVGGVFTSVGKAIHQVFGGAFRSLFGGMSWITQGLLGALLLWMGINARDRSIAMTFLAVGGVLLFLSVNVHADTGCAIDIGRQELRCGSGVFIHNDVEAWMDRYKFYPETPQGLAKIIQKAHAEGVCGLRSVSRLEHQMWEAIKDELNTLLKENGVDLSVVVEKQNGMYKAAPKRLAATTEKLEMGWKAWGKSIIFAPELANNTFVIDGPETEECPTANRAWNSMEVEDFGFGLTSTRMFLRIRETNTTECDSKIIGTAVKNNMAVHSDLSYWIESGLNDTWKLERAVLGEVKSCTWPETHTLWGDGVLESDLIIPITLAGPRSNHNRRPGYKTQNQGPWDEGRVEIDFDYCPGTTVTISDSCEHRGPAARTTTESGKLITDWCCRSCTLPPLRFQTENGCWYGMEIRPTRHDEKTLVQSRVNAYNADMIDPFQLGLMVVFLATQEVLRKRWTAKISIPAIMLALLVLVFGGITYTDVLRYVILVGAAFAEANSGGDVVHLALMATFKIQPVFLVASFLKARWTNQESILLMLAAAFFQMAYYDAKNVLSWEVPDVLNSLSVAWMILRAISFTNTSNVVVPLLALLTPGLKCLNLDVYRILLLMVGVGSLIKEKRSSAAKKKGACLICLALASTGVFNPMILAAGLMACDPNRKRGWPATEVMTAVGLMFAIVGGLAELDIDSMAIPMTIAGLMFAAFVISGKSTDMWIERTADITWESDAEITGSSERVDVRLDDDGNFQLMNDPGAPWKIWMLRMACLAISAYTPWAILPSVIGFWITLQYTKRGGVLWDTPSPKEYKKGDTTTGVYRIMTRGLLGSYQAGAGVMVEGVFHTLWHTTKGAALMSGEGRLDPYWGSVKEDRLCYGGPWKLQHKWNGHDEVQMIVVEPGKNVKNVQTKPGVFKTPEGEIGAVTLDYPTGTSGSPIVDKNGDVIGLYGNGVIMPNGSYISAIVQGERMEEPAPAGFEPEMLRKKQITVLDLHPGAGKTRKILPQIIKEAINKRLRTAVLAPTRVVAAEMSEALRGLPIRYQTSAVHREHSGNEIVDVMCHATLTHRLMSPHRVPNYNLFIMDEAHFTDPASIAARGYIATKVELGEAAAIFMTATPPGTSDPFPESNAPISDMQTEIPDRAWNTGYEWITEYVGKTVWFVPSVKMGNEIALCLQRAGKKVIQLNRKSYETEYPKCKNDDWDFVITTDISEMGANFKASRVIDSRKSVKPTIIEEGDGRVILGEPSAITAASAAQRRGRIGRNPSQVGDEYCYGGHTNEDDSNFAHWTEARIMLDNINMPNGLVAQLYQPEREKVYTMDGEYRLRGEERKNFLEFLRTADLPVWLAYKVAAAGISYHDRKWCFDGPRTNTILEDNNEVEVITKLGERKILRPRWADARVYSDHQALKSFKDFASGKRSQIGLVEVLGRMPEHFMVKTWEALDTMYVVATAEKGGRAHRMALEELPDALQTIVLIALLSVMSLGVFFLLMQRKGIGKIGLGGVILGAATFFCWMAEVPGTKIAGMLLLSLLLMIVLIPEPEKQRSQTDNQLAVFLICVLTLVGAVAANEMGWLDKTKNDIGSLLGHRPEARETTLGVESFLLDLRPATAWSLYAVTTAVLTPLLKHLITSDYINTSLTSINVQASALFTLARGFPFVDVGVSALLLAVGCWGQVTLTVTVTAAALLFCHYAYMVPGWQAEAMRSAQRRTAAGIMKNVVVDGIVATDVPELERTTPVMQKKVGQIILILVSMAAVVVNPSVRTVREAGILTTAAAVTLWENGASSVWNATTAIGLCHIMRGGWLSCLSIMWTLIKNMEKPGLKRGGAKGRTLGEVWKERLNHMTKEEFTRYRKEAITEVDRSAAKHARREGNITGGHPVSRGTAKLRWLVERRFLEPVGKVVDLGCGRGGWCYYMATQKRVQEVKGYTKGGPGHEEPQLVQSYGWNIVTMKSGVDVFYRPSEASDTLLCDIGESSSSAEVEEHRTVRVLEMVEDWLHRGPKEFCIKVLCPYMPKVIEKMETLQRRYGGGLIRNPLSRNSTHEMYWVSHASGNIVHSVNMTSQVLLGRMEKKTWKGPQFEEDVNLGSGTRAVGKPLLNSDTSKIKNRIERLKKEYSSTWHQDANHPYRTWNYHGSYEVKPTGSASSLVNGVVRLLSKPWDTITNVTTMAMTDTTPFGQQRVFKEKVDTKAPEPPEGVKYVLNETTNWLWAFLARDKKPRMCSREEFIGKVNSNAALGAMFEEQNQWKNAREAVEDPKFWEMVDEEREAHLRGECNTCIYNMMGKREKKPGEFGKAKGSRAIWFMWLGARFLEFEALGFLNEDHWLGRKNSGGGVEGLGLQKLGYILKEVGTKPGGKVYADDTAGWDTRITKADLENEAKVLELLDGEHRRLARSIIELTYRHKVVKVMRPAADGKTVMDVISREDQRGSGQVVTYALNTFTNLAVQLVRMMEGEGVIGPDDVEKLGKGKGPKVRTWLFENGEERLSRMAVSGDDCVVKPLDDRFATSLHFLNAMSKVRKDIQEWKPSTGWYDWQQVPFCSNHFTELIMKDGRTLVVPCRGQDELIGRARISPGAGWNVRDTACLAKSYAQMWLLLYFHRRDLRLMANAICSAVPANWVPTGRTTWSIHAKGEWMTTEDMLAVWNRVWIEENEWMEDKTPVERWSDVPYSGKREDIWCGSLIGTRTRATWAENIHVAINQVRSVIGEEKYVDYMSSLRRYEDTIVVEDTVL
Test: Inhibition of West Nile virus NS2B-NS3 protease at 50 uM preincubated with protein for 15 mins followed by Abz-Gly-Leu-Lys-Arg-Gly-Gly-3-(NO2)-Tyr substrate addition measured by continuous fluorometric analysis
Non-standard residues stand in square brackets, D forms with d. Residues, ends and D or L forms follow the SMILES beside them. *: point of attachment. Phe(4-guanidino) = N=C(N)Nc1ccc(C[C@H](N)C(=O)O)cc1; Phe(4-CN) = N#Cc1ccc(C[C@H](N)C(=O)O)cc1; Phe(4-NH2) = Nc1ccc(C[C@H](N)C(=O)O)cc1; Hydrocinnamoyl = O=C(CCc1ccccc1)*; 3Pal = N[C@@H](Cc1cccnc1)C(=O)O; Phg = N[C@H](C(=O)O)c1ccccc1; Bz = O=C(c1ccccc1)*

{"Compound": "N=C(N)c1cccc(C[C@H](NC(=O)c2ccc(C(F)(F)F)cc2)C(=O)N[C@@H](CCCCN)C(=O)N[C@H](C(N)=O)c2ccccc2)c1", "inhibition [%]": 76.1}
{"Compound": "N=C(N)Nc1ccc(C[C@H](NC(=O)CCc2ccccc2)C(=O)N[C@@H](CCCCN)C(=O)N[C@H](C(N)=O)c2ccccc2)cc1 (Hydrocinnamoyl-[Phe(4-guanidino)]-Lys-[Phg]-NH2)", "inhibition [%]": 44.3}
{"Compound": "N#Cc1ccc(C[C@H](NC(=O)c2ccccc2)C(=O)N[C@@H](CCCCN)C(=O)N[C@H](C(N)=O)c2ccccc2)cc1 (Bz-[Phe(4-CN)]-Lys-[Phg]-NH2)", "inhibition [%]": 4.7}
{"Compound": "N=C(N)Nc1ccc(C[C@H](NC(=O)c2ccccc2)C(=O)N[C@@H](CCCCN)C(=O)N[C@H](C(N)=O)c2ccccc2)cc1 (Bz-[Phe(4-guanidino)]-Lys-[Phg]-NH2)", "inhibition [%]": 64.7}
{"Compound": "N=C(N)c1ccc(C[C@H](NC(=O)CCc2ccccc2)C(=O)N[C@@H](CCCCN)C(=O)N[C@H](C(N)=O)c2ccccc2)cc1", "inhibition [%]": 67.7}
{"Compound": "N=C(N)c1ccc([C@H](NC(=O)c2ccccc2)C(=O)N[C@@H](CCCCN)C(=O)N[C@H](C(N)=O)c2ccccc2)cc1", "inhibition [%]": 59.5}
{"Compound": "NCCCC[C@H](NC(=O)[C@H](Cc1ccc(N)cc1)NC(=O)c1ccccc1)C(=O)N[C@H](C(N)=O)c1ccccc1 (Bz-[Phe(4-NH2)]-Lys-[Phg]-NH2)", "inhibition [%]": 23.8}
{"Compound": "N=C(N)NCCC[C@H](NC(=O)c1ccc(C(F)(F)F)cc1)C(=O)N[C@@H](CCCCN)C(=O)N[C@H](C(N)=O)c1ccccc1", "inhibition [%]": 85.3}
{"Compound": "N=C(N)Nc1cccc([C@H](NC(=O)c2ccccc2)C(=O)N[C@@H](CCCCN)C(=O)N[C@H](C(N)=O)c2ccccc2)c1", "inhibition [%]": 89.4}
{"Compound": "NCCCC[C@H](NC(=O)[C@H](Cc1cccnc1)NC(=O)c1ccccc1)C(=O)N[C@H](C(N)=O)c1ccccc1 (Bz-[3Pal]-Lys-[Phg]-NH2)", "inhibition [%]": 23.8}
{"Compound": "N=C(N)Nc1ccc(C[C@H](NC(=O)c2ccc(C(F)(F)F)cc2)C(=O)N[C@@H](CCCCN)C(=O)N[C@H](C(N)=O)c2ccccc2)cc1", "inhibition [%]": 42.2}

###

Examples of compounds with documented inhibition at 50 µM follow.
System: dengue virus type 2
Test: Antiviral activity against wild type Dengue virus (serotype 2) infected in human Huh-7 cells assessed as inhibition of viral replication at 50 uM incubated for 48 hrs measured by Cell-Titer Glo Luminescent viability assay
Format: functional
Conditions: Huh-7, 48 h
Non-standard residues stand in square brackets, D forms with d. Residues, ends and D or L forms follow the SMILES beside them. *: point of attachment. Phe(4-guanidino) = N=C(N)Nc1ccc(C[C@H](N)C(=O)O)cc1; Hydrocinnamoyl = O=C(CCc1ccccc1)*; Phg = N[C@H](C(=O)O)c1ccccc1; Bz = O=C(c1ccccc1)*

{"Compound": "N=C(N)Nc1ccc(C[C@H](NC(=O)CCc2ccccc2)C(=O)N[C@@H](CCCCN)C(=O)N[C@H](C(N)=O)c2ccccc2)cc1 (Hydrocinnamoyl-[Phe(4-guanidino)]-Lys-[Phg]-NH2)", "inhibition at 50 µM (%)": 8.8}
{"Compound": "N=C(N)c1ccc(C[C@H](NC(=O)c2ccc(C(F)(F)F)cc2)C(=O)N[C@@H](CCCCN)C(=O)N[C@H](C(N)=O)c2ccccc2)cc1", "inhibition at 50 µM (%)": 38.2}
{"Compound": "N=C(N)c1ccc(C[C@H](NC(=O)CCc2ccccc2)C(=O)N[C@@H](CCCCN)C(=O)N[C@H](C(N)=O)c2ccccc2)cc1", "inhibition at 50 µM (%)": 58.8}
{"Compound": "N=C(N)c1ccc(C[C@H](NC(=O)c2ccccc2)C(=O)N[C@@H](CCCCN)C(=O)N[C@H](C(N)=O)c2ccccc2)cc1", "inhibition at 50 µM (%)": 32.4}
{"Compound": "N=C(N)NCCC[C@H](NC(=O)c1ccccc1)C(=O)N[C@@H](CCCCN)C(=O)N[C@H](C(N)=O)c1ccccc1 (Bz-Arg-Lys-[Phg]-NH2)", "inhibition at 50 µM (%)": 40.3}

###

Target: Prothrombin (Homo sapiens)

{"Smiles Str": "N=C(N)c1cccc(C[C@H](NC(=O)CCc2ccccc2)C(=O)N[C@@H](CCCCN)C(=O)N[C@H](C(N)=O)c2ccccc2)c1", "Measurement Units": "µM", "IC50": 4.59}

###

Assay: Inhibition of Dengue virus (serotype 2) NS2B-NS3 protease preincubated with protein for 15 mins followed by Abz-Nle-Lys-Arg-Arg-Ser-3-(NO2)Tyr substrate addition measured by continuous fluorometric analysis
Design: species or system dengue virus type 2
pIC50: −log10 of the molar value. Non-standard residues stand in square brackets, D forms with d. Residues, ends and D or L forms follow the SMILES beside them. *: point of attachment. Phe(4-guanidino) = N=C(N)Nc1ccc(C[C@H](N)C(=O)O)cc1; Hydrocinnamoyl = O=C(CCc1ccccc1)*; Phg = N[C@H](C(=O)O)c1ccccc1

{"Molecule": "N=C(N)Nc1ccc(C[C@H](NC(=O)c2ccc(C(F)(F)F)cc2)C(=O)N[C@@H](CCCCN)C(=O)N[C@H](C(N)=O)c2ccccc2)cc1", "pIC50": 6.16}
{"Molecule": "N=C(N)NCCC[C@H](NC(=O)c1ccc(C(F)(F)F)cc1)C(=O)N[C@@H](CCCCN)C(=O)N[C@H](C(N)=O)c1ccccc1", "pIC50": 5.99}
{"Molecule": "N=C(N)Nc1ccc(C[C@H](NC(=O)CCc2ccccc2)C(=O)N[C@@H](CCCCN)C(=O)N[C@H](C(N)=O)c2ccccc2)cc1 (Hydrocinnamoyl-[Phe(4-guanidino)]-Lys-[Phg]-NH2)", "pIC50": 6.05}
